target: T1, human CD40 on cells (human, UniProt P25942 21-277); test: FACS, CHO-K1/hCD40 cells
T1 construct: whole, on cells; The cell line used is named in each row's assay; also called hCD40; TNFRSF5
T1 sequence (P25942 21-277): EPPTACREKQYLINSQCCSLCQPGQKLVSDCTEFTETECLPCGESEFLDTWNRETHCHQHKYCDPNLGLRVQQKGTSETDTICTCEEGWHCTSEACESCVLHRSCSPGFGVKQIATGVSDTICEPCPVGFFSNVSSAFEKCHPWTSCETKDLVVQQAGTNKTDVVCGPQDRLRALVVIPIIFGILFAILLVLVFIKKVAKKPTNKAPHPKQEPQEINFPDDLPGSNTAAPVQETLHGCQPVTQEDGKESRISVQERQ
Maximum MFI listing for selected binders.
Field: numeric (MFI). Do not append units.

Take a look at these entries with their results.
PR006493 (antibody, human IgG1, kappa, V domains shown, PR003379 variant L:N92L; human IgG1 L234A, L235A, G237A) VH: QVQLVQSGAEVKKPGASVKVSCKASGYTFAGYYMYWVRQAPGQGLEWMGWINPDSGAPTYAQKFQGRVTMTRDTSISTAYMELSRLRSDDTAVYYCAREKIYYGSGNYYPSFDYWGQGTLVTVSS VL: DIQLTQSPSFLSASVGDRVTITCRASQGISSYLAWYQQKPGKAPKLLIYAASTLQSGVPSRFSGSGSGTEFTLTISSLQPEDFATYYCQQLLSYPWTFGQGTKVEIKR | 83400
PR006497 (antibody, human IgG1, kappa, V domains shown, PR003379 variant L:N92Y; human IgG1 L234A, L235A, G237A) VH: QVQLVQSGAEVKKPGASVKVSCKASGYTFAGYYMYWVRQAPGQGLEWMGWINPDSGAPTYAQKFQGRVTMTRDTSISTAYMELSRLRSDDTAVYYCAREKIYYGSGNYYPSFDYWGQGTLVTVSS VL: DIQLTQSPSFLSASVGDRVTITCRASQGISSYLAWYQQKPGKAPKLLIYAASTLQSGVPSRFSGSGSGTEFTLTISSLQPEDFATYYCQQLYSYPWTFGQGTKVEIKR | 92300

## Task For the binder PR006505 (antibody, human IgG1, kappa, V domains shown, PR003379 variant L:S93I; human IgG1 L234A, L235A, G237A) VH: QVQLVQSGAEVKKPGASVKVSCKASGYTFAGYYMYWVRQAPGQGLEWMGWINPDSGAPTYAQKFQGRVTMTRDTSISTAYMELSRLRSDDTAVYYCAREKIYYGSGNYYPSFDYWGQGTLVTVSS VL: DIQLTQSPSFLSASVGDRVTITCRASQGISSYLAWYQQKPGKAPKLLIYAASTLQSGVPSRFSGSGSGTEFTLTISSLQPEDFATYYCQQLNIYPWTFGQGTKVEIKR , what Maximum MFI is on record?
## Result 82700

## Task Find the recorded Maximum MFI belonging to PR006492 (antibody, human IgG1, kappa, V domains shown, PR003379 variant L:N92E; human IgG1 L234A, L235A, G237A) VH: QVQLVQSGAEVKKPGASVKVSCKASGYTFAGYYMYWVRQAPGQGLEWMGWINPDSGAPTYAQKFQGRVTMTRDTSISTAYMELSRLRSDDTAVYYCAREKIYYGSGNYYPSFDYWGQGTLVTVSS VL: DIQLTQSPSFLSASVGDRVTITCRASQGISSYLAWYQQKPGKAPKLLIYAASTLQSGVPSRFSGSGSGTEFTLTISSLQPEDFATYYCQQLESYPWTFGQGTKVEIKR and report it.
## Result 92300

## Task Data request, read-out Maximum MFI, for PR006495 (antibody, human IgG1, kappa, V domains shown, PR003379 variant L:N92A; human IgG1 L234A, L235A, G237A) VH: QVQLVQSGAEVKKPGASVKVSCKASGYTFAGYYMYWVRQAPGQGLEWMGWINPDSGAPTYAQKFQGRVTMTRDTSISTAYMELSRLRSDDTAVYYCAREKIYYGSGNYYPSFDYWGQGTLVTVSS VL: DIQLTQSPSFLSASVGDRVTITCRASQGISSYLAWYQQKPGKAPKLLIYAASTLQSGVPSRFSGSGSGTEFTLTISSLQPEDFATYYCQQLASYPWTFGQGTKVEIKR
## Result 79400
